I'd be grateful if you could share measured pIC50 for these entries.
- procedure_summary: Antiproliferative activity against human A549/PTX cells assessed as reduction in cell viability measured after 48 hrs by CCK8 assay
- Type: functional, cell-based
- conditions_used: A549/Taxol
Just the number, please; pIC50 means minus log10 of the concentration in mol/L.

[Q] Query (molecule): "COc1ccc(/C=C\c2cc(OC)c(OC)c(OC)c2)cc1OCc1ccc(CNCCN(C)C)cc1" ; field requested: pIC50
[A] 5.80

[Q] Proceed to COc1ccc(/C=C\c2cc(OC)c(OC)c(OC)c2)cc1OCc1ccc(CN2CCCCC2C(=O)O)cc1 (configuration not stated)
[A] 4.99

[Q] Proceed to "COc1ccc(/C=C\c2cc(OC)c(OC)c(OC)c2)cc1OCc1ccc(CN2CC[C@H](C(=O)O)C2)cc1"
[A] 4.92

[Q] Proceed to "COc1ccc(/C=C\c2cc(OC)c(OC)c(OC)c2)cc1OCc1ccc(CNCCO)cc1"
[A] 6.10

[Q] Proceed to COc1ccc(/C=C\c2cc(OC)c(OC)c(OC)c2)cc1O [COMBRETASTATIN A4]
[A] 6.21

[Q] Proceed to COc1ccc(/C=C\c2cc(OC)c(OC)c(OC)c2)cc1OCc1ccc(CN2CCCCC2C(=O)NCCNC(=O)OC(C)(C)C)cc1 (configuration not stated)
[A] 4.82

[Q] Proceed to "COc1ccc(/C=C\c2cc(OC)c(OC)c(OC)c2)cc1OCc1ccc(CO)cc1"
[A] 4.92

[Q] Proceed to COc1ccc(/C=C\c2cc(OC)c(OC)c(OC)c2)cc1OCc1ccc(CN2CCCCC2C(=O)NCCN)cc1 (configuration not stated)
[A] 5.57

[Q] Proceed to "COc1ccc(/C=C\c2cc(OC)c(OC)c(OC)c2)cc1OCc1ccc(CNCCNC(C)=O)cc1"
[A] 5.96

[Q] Proceed to "COc1ccc(/C=C\c2cc(OC)c(OC)c(OC)c2)cc1OCc1ccc(CN2CC[C@H](O)C2)cc1"
[A] 5.23

[Q] Proceed to "COc1ccc(/C=C\c2cc(OC)c(OC)c(OC)c2)cc1OCc1ccc(CN2CC[C@@H](O)C2)cc1"
[A] 5.05

###

- System: HeLa
- procedure_summary: Antiproliferative activity against human HeLa cells assessed as reduction in cell viability measured after 48 hrs by CCK8 assay
- Type: functional, cell-based
measured_quantity: IC50

[Q] Query (compound): "COc1ccc(/C=C\c2cc(OC)c(OC)c(OC)c2)cc1OCc1ccc(CN2CC[C@H](C(=O)O)C2)cc1" ; field requested: IC50
[A] > 10 µM

[Q] Proceed to "COc1ccc(/C=C\c2cc(OC)c(OC)c(OC)c2)cc1OCc1ccc(CNC(C)(C)C(=O)O)cc1"
[A] > 10 µM

[Q] Proceed to "COc1ccc(/C=C\c2cc(OC)c(OC)c(OC)c2)cc1OCc1ccc(CN[C@H](C(=O)O)[C@H](C)O)cc1"
[A] > 10 µM

[Q] Proceed to "COc1ccc(/C=C\c2cc(OC)c(OC)c(OC)c2)cc1OCc1ccc(CN2CC[C@H](O)C2)cc1"
[A] 10.5 µM

[Q] Proceed to "COc1ccc(/C=C\c2cc(OC)c(OC)c(OC)c2)cc1OCc1ccc(CNCCN(C)C)cc1"
[A] 9.4 µM

[Q] Proceed to "COc1ccc(/C=C\c2cc(OC)c(OC)c(OC)c2)cc1OCc1ccc(CN2CC[C@@H](O)C2)cc1"
[A] > 10 µM

[Q] Proceed to "COc1ccc(/C=C\c2cc(OC)c(OC)c(OC)c2)cc1OCc1ccc(CN2C[C@H](O)C[C@@H]2C(=O)O)cc1"
[A] > 10 µM

[Q] Proceed to COc1ccc(/C=C\c2cc(OC)c(OC)c(OC)c2)cc1OCc1ccc(CN2CCCCC2C(=O)O)cc1 (stereo not drawn)
[A] 14.2 µM
